- Test system: guinea-pig ileal preparation
- Test Protocol: Decrease of contractile response to intramural electric stimulation in the guinea-pig ileal preparation
- Condition Context: Cavia porcellus; adenosine added in rising concentrations 0.1-10 uM; electrically-stimulated ileal preparation; read-out: EC50 of decrease in contraction amplitude
pEC50: −log10 of the molar value.
Quantity Measured: pEC50

What value of measured pEC50 is listed for Nc1ncnc2c1ncn2[C@@H]1O[C@H](CO)[C@@H](O)[C@H]1O [Adenosine, adenosine, reference compound] ?
~6.00

---

- Test system: mice
- Test Protocol: Protection against hypobaric hypoxia in mice (survival time)
- Type: in vivo
- Condition Context: Mus musculus; 50 mg/kg, ip; mice; 200 mm Hg; read-out: survival ± SD (survival time as percent of vehicle control)
Quantity Measured: response vs control in vivo at 50 mg/kg (%)
Write the number in % without appending the unit.

Solved cases (3 shown):
{"Molecule": "CC(=O)NC1=CCc2cc(Cl)ccc21 [Compound 6, N-Acetyl-3-amino-6-chloro-1H-indene]", "Quantity Measured": "response vs control in vivo at 50 mg/kg", "Recorded Measurement": 234}
{"Molecule": "CC(=O)NC1=CCc2ccccc21 [Compound 3, N-Acetyl-3-amino-1H-indene]", "Quantity Measured": "response vs control in vivo at 50 mg/kg", "Recorded Measurement": 879}
{"Molecule": "CC(=O)N[C@@H]1CCc2ccccc21 [Compound 2a, (R)-N-acetyl-1-aminoindan, reference compound]", "Quantity Measured": "response vs control in vivo at 50 mg/kg", "Recorded Measurement": 299}

What value of measured response vs control in vivo at 50 mg/kg is listed for O=CNC1=CCc2cc(Cl)ccc21 [Compound 7, N-formyl-6-chloro-3-amino-1H-indene] ?
893

What value of measured response vs control in vivo at 50 mg/kg is listed for O=CNC1=CCc2ccccc21 [Compound 5, N-Formyl-3-amino-1H-indene] ?
331

---

- System: guinea-pig ileal preparation
- Test Protocol: Decrease in contractile response of guinea-pig ileum evoked by the nicotinic agonist DMPP
- Condition Context: Cavia porcellus
Quantity Measured: EC50 (µM)
Write the number in µM without appending the unit.

What value of measured EC50 is listed for CC(=O)NC1=CCCc2ccccc21 [Compound 4, N-Acetyl-4-amino-1,2-dihydronaphthalene] ?
193

The measured values listed here are drawn from patent US6737547B1.
